Values were extracted from patent US20260028391A1.

Target: RSV fusion glycoprotein (RSV-F) of the RSV used in the neutralization of Table 33 (respiratory syncytial virus, strain not stated)
Assay: cell-based or functional assay
reported-property: IC50 (ng/mL) in neutralization against RSV
Numbers only; they are read as ng/mL.

q: Request the reported IC50 (ng/mL) in neutralization against RSV associated with MPH12-rIgG1-LS (antibody, V domains shown) VH: QVQLVESGGGLVKPGGSLRLSCVASGFTFSGFYMKWIRQAPGKGLEWVSSISASGSYTNYADSVEGRFTVSRDNAKNSLFLLMSSLRAEDTAVYYCARGDSYCGASACHGEFFHKWGQGTLVTVSS VL: QSVLTQPPSVSGAPGQRVTISCTGSDSNIGADFDVHWYQQLPGTAPKLLIYGNINRPSGVPDRFSGSRSGTSAFLAITRLQAEDEADYYCQSYDRSLHYVFGAGTKVTVL
a: 12.9
